- Test System: Human immunodeficiency virus type 1 reverse transcriptase (Human immunodeficiency virus 1, UniProt Q72547, K101P)
- Procedure Summary: Inhibition of HIV-1 reverse transcriptase K101P mutant by fluorescence assay
IC50 values by entry
Field: numeric (nM). Do not append units.

The cases that follow already have their IC50 on record.
[[record]]
compound = "N#C/C=C/c1cc(Cl)cc(Oc2ccccc2OCCn2ccc(=O)[nH]c2=O)c1"
parameter_measured = "IC50"
unit_annotation = "nM"
reported_result = 2.1

[[record]]
compound = "Cc1cc(/C=C/C#N)cc(C)c1Nc1ccnc(Nc2ccc(C#N)cc2)n1"
parameter_measured = "IC50"
unit_annotation = "nM"
reported_result = 1000

[[record]]
compound = "N#Cc1cc2c(Oc3ccccc3OCCn3ccc(=O)[nH]c3=O)cccn2c1"
parameter_measured = "IC50"
unit_annotation = "nM"
reported_result = 1.9


Proceed to the following item.
Prompt: Report IC50 for N#C/C=C/c1cc(F)cc(Oc2ccc(F)cc2OCCn2ccc(=O)[nH]c2=O)c1 please.
Completion: 2.2

---

CC50 values by entry
- Procedure Summary: Cytotoxicity against human CD4-positive T cells
- Assay type: cell-based, T-cell

[[record]]
compound = "N#Cc1cc2c(Oc3ccccc3OCCn3ccc(=O)[nH]c3=O)cccn2c1"
parameter_measured = "CC50"
reported_result = "> 100 µM"

[[record]]
compound = "N#C/C=C/c1cc(F)cc(Oc2ccc(F)cc2OCCn2ccc(=O)[nH]c2=O)c1"
parameter_measured = "CC50"
reported_result = "45 µM"


Proceed to the following item.
Prompt: Report CC50 for N#C/C=C/c1cc(Cl)cc(Oc2ccccc2OCCn2ccc(=O)[nH]c2=O)c1 please.
Completion: 18 µM

---

- Procedure Summary: Aqueous solubility of compound
- Type: physicochemical
solubility values by entry

[[record]]
compound = "Cc1cc(/C=C/C#N)cc(C)c1Nc1ccnc(Nc2ccc(C#N)cc2)n1"
reported_result = "< 0.1 µg/mL"


Proceed to the following item.
Prompt: Report solubility for N#C/C=C/c1cc(F)cc(Oc2ccc(F)cc2OCCn2ccc(=O)[nH]c2=O)c1 please.
Completion: 10.8 µg/mL

---

- Test System: Human immunodeficiency virus type 1 reverse transcriptase (Human immunodeficiency virus 1, UniProt Q72547)
pIC50 values by entry
Scale for pIC50: -log10 of concentration given in mol/L; no unit attached.

The cases that follow already have their pIC50 on record.
[[record]]
compound = "N#C/C=C/c1cc(F)cc(Oc2ccc(F)cc2OCCn2ccc(=O)[nH]c2=O)c1"
reported_result = 8.57

[[record]]
compound = "N#C/C=C/c1cc(Cl)cc(Oc2ccccc2OCCn2ccc(=O)[nH]c2=O)c1"
reported_result = 8.48


Prompt: Report pIC50 for N#Cc1cc2c(Oc3ccccc3OCCn3ccc(=O)[nH]c3=O)cccn2c1 please.
Completion: 8.97
